Recorded GI50 values (ES-2 Ewing sarcoma cells (EWS-FLI1 Type 3)) are given below.
Write the number in nM without appending the unit.

Query: Endpoint output: GI50 of COC(=O)C(Cc1c[nH]c2ccccc12)NC(=O)C(Cc1c[nH]c2ccccc12)NC(=O)C(OC)C1Cc2cc3cc(OC4CC(OC5CC(O)C(O)C(C)O5)C(O)C(C)O4)c(C)c(O)c3c(O)c2C(=O)C1OC1CC(OC2CC(OC3CC(C)(O)C(O)C(C)O3)C(O)C(C)O2)C(O)C(C)O1 (stereo not drawn) [Analogue 61, MTMSA-Trp-Trp] . Value?
Response: 123

Query: Endpoint output: GI50 of COC(=O)C(Cc1c[nH]c2ccccc12)NC(=O)C(Cc1ccccc1)NC(=O)C(OC)C1Cc2cc3cc(OC4CC(OC5CC(O)C(O)C(C)O5)C(O)C(C)O4)c(C)c(O)c3c(O)c2C(=O)C1OC1CC(OC2CC(OC3CC(C)(O)C(O)C(C)O3)C(O)C(C)O2)C(O)C(C)O1 (stereo not drawn) [Analogue 60, MTMSA-Phe-Trp] . Value?
Response: 78

Query: Endpoint output: GI50 of COC(=O)C(Cc1cn(C)c2ccccc12)NC(=O)C(OC)C1Cc2cc3cc(OC4CC(OC5CC(O)C(O)C(C)O5)C(O)C(C)O4)c(C)c(O)c3c(O)c2C(=O)C1OC1CC(OC2CC(OC3CC(C)(O)C(O)C(C)O3)C(O)C(C)O2)C(O)C(C)O1 (stereo not drawn) [Analogue 45] . Value?
Response: 1500

----------
Please respond with reported GI50 for every item in the list.
- Test system: prostate cell lines lacking TMPRSS2-ERG
- ASSAY PROTOCOL: Median GI50 in prostate cell lines lacking TMPRSS2-ERG
- REPORTED CONDITIONS: read-out: Median GI50 in prostate cell lines, lacking TMPRSS2-ERG; unit inferred
Write the number in nM without appending the unit.

Query: Endpoint output: GI50 of COC(=O)C(Cc1c[nH]c2cc(F)ccc12)NC(=O)C(OC)C1Cc2cc3cc(OC4CC(OC5CC(O)C(O)C(C)O5)C(O)C(C)O4)c(C)c(O)c3c(O)c2C(=O)C1OC1CC(OC2CC(OC3CC(C)(O)C(O)C(C)O3)C(O)C(C)O2)C(O)C(C)O1 (stereo not shown) . Value?
Response: 187

Query: Endpoint output: GI50 of COC(=O)C(Cc1c[nH]c2ccccc12)NC(=O)C(OC)C1Cc2cc3cc(OC4CC(OC5CC(O)C(O)C(C)O5)C(O)C(C)O4)c(C)c(O)c3c(O)c2C(=O)C1OC1CC(OC2CC(OC3CC(C)(O)C(O)C(C)O3)C(O)C(C)O2)C(O)C(C)O1 (stereo not shown) [MTMSA-Trp (3), Mithramycin SA-Tryptophan, reference compound] . Value?
Response: 76

Query: Endpoint output: GI50 of C=CCOc1ccc2[nH]cc(CC(NC(=O)C(OC)C3Cc4cc5cc(OC6CC(OC7CC(O)C(O)C(C)O7)C(O)C(C)O6)c(C)c(O)c5c(O)c4C(=O)C3OC3CC(OC4CC(OC5CC(C)(O)C(O)C(C)O5)C(O)C(C)O4)C(O)C(C)O3)C(=O)OC)c2c1 (stereo not shown) . Value?
Response: 454

Query: Endpoint output: GI50 of COC(=O)C(Cc1cn(C)c2ccccc12)NC(=O)C(OC)C1Cc2cc3cc(OC4CC(OC5CC(O)C(O)C(C)O5)C(O)C(C)O4)c(C)c(O)c3c(O)c2C(=O)C1OC1CC(OC2CC(OC3CC(C)(O)C(O)C(C)O3)C(O)C(C)O2)C(O)C(C)O1 (stereo not shown) . Value?
Response: 1560

Data origin: patent US11224609B2
